TESTED_ON: CXC chemokine receptor type 4 (CXCR4) (human, UniProt P61073 1-352)
Sequence (P61073 whole entry): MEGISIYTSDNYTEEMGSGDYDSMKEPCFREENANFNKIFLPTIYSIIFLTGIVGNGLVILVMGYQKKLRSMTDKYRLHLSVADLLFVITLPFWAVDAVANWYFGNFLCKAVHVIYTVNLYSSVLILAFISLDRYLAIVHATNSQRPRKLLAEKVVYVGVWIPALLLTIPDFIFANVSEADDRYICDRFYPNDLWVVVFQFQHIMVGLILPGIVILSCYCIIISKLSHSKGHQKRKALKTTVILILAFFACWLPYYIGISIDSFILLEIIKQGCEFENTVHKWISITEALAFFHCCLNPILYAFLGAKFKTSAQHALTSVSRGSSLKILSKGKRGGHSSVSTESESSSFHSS
ASSAY_PROTOCOL: cell-based or functional assay
Where no end group is shown, it is not given here. [ ]: non-standard residue; d: D form. The star is where a group is joined. Palmitoyl = CCCCCCCCCCCCCCCC(=O)*
QUANTITY_KIND: IC50, HIV inhibition assay

BINDER	RESULT
Ac-[dS]LRWSRKMPCVS [JM#26]	> 150 nM
ILRWSRKLPCVS (not fully specified (residue 7)) [JM#143]	> 150 nM
IVRWSK(Palmitoyl)K-NH2 [JM#164]	> 150 nM
IVRWSKKVPSVS [JM#151]	> 150 nM
[dL]MRWSRK(Palmitoyl)MP-NH2 (N-terminus assumed; SMILES CCCCCCCCCCCCCCCC(=O)NCCCC[C@H](NC(=O)[C@H](CCCNC(=N)N)NC(=O)[C@H](CO)NC(=O)[C@H](Cc1c[nH]c2ccccc12)NC(=O)[C@H](CCCNC(=N)N)NC(=O)[C@H](CCSC)NC(=O)[C@H](N)CC(C)C)C(=O)N[C@@H](CCSC)C(=O)N1CCC[C@H]1C(N)=O) [JM#178]	5 to 10 nM
